SYSTEM_UNDER_TEST: HDAC2 (Homo sapiens, UniProt Q92769)
Sequence (Q92769 whole entry, canonical isoform): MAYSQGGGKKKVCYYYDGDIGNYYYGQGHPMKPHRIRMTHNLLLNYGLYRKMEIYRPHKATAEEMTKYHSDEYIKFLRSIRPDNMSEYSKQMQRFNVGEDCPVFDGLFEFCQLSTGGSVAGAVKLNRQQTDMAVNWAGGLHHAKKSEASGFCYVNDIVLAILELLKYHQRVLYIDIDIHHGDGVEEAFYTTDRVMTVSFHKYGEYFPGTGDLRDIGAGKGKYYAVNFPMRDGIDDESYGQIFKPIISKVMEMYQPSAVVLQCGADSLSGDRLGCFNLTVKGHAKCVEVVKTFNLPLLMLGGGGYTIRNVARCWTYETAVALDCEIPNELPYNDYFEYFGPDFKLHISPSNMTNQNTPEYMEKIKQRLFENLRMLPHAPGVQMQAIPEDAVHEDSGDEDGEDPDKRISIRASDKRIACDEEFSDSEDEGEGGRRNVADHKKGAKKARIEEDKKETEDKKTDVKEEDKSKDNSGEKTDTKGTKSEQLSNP
ASSAY_EXPLANATION: HDAC isoform inhibition assay (Reaction Biology)
COND: read-out: IC50 HDAC2; 10-dose IC50 mode, threefold serial dilution starting at 10 μM
READOUT_LABEL: IC50

Each compound below has a reported value. Please supply its IC50.
1. O=C(/C=C/c1cccc(S(=O)(=O)N[C@@H]2C[C@H]2c2ccccc2)c1)NO [Compound 2]
2. O=C(NO)c1ccc(CN2CCC(S(=O)(=O)N[C@@H]3C[C@H]3c3ccccc3)CC2)cc1 [Compound 10]
3. O=C(/C=C/c1ccc(S(=O)(=O)N[C@@H]2C[C@H]2c2ccccc2)cc1)NO [Compound 3]

OUT:
373 nM
8300 nM
343 nM

This collection of values is drawn from paper PMC11472331.
